target: UniProt:Q8PCA2
Sequence (Q8PCA2 1-313): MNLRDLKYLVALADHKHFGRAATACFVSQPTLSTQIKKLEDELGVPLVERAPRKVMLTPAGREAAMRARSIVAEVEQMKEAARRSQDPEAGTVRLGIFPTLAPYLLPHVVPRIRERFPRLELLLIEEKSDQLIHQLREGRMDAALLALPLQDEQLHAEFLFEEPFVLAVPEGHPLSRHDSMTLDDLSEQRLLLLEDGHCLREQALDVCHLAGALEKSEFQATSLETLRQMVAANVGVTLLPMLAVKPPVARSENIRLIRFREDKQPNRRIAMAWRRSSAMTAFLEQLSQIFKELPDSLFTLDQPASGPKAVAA
Metric Name: Kd (nM)
Record the value in nM, omitting the unit from your answer.

Asked: API: value(readout= Kd, system= UniProt:Q8PCA2, query= C[S@@+]([O-])CCCCN=C=S [sulforaphane] )
Given back: 325
